Test system: Highly purified T cells
Test: T cell proliferation induced by anti-CD3 mAb + PMA (BrdU incorporation)
Format: cell-based, Human
Settings: Homo sapiens, T-cell; untitled structure table; no unit printed there, same values in Table II as IC50 in µM; read-out: aCD3
Experimental: Various models may be used for testing an immunosuppressive effect. In vivo, for example, different transplantation models are available. […] Usually activation is measured via lymphocyte proliferation. […] Highly purified T cells (10^6/ml) were stimulated by immobilized anti-CD3 àr anti-CD28 mAb in the presence of PMA. […] The optical density (OD) was measured by a Behring EL311 plate reader at 450 nm (reference wavelength: 690 nm). […]
Listed compounds paired with reported IC50

Would you please look over these solved cases?
Cc1nc2nc(N)nc(N)c2nc1-c1ccccc1    > 200 µM
Nc1nc(NO)c2nc(-c3ccccc3)cnc2n1    > 200 µM

Next up:
In: Specify IC50 for `Nc1nc(N)c2nc(-c3ccccc3)cnc2n1` and stop.
Out: > 200 µM

// data source = patent EP1144412B1
